assay: Plasma pharmacokinetics after a single subcutaneous administration of LEN; format: in vivo, rhesus macaques; details: male, Indian-origin (outbred), rhesus monkey, plasma, subcutaneous, 20 mg/kg, Plasma LEN (Mean), 20 mg/kg sc, week 10 post dose
QUANTITY_NAME: concentration at 10 week (nM)

CC(C)(C#Cc1ccc(-c2ccc(Cl)c3c(NS(C)(=O)=O)nn(CC(F)(F)F)c23)c([C@H](Cc2cc(F)cc(F)c2)NC(=O)Cn2nc(C(F)(F)F)c3c2C(F)(F)[C@@H]2C[C@H]32)n1)S(C)(=O)=O ... 27.9

###

assay: Plasma pharmacokinetics after a single subcutaneous administration of LEN; format: in vivo, rhesus macaques; details: male, Indian-origin (outbred), rhesus monkey, plasma, subcutaneous, 75 mg/kg, Plasma LEN, animal V417, 75 mg/kg, week 7 post challenge
QUANTITY_NAME: concentration at 7 weeks post challenge (nM)

CC(C)(C#Cc1ccc(-c2ccc(Cl)c3c(NS(C)(=O)=O)nn(CC(F)(F)F)c23)c([C@H](Cc2cc(F)cc(F)c2)NC(=O)Cn2nc(C(F)(F)F)c3c2C(F)(F)[C@@H]2C[C@H]32)n1)S(C)(=O)=O [LEN, Lenacapavir] ... 43.9
